- Tested On: Cholinesterase (Homo sapiens, UniProt P06276)
- Sequence (P06276 whole entry): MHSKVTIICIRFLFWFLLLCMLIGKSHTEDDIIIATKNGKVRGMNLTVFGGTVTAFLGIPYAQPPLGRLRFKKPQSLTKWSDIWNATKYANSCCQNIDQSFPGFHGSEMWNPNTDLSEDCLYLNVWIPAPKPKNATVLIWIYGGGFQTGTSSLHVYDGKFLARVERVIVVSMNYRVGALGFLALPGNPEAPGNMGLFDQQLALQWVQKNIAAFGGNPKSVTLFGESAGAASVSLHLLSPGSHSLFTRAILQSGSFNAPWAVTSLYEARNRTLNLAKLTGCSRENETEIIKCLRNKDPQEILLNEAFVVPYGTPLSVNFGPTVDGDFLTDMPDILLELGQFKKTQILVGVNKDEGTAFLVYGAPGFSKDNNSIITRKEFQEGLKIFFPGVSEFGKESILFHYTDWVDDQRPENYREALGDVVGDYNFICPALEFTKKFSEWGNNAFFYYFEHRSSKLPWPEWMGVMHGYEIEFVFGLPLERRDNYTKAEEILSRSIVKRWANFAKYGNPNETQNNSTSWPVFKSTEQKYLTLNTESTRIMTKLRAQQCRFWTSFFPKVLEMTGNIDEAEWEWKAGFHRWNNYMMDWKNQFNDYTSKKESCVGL
- Measurement Notes: Inhibition of human plasma BuChE using butyrylthiocholine as substrate measured after 5 mins by Ellman's method
Outcome Measure: pIC50
The value called pIC50 is obtained by taking minus log10 of the concentration in mol/L.

// solved cases for pIC50 follow
CCCCC[N+]1(C)CCN(c2ccc(/C=C3\Cc4cc(OC)c(OC)cc4C3=O)cc2)CC1 : 5.49
CCCCCC[N+]1(C)CCN(c2ccc(/C=C3\Cc4cc(OC)c(OC)cc4C3=O)cc2)CC1 : 5.44
COc1cc2c(cc1OC)C(=O)/C(=C/c1ccc(N3CC[N+](C)(Cc4ccccn4)CC3)cc1)C2 : 5.49

Query: Tell me pIC50 reported for COc1cc2c(cc1OC)C(=O)/C(=C/c1ccc(N3CC[N+](C)(Cc4ccc(Br)cc4)CC3)cc1)C2
Result: 5.34

Query: Tell me pIC50 reported for C=CC[N+]1(C)CCN(c2ccc(/C=C3\Cc4cc(OC)c(OC)cc4C3=O)cc2)CC1
Result: 4.60

Query: Tell me pIC50 reported for COc1cc2c(cc1OC)C(=O)/C(=C/c1ccc(N3CC[N+](C)(Cc4cccc(Cl)c4)CC3)cc1)C2.[Br-]
Result: 6.37

Query: Tell me pIC50 reported for COc1cc2c(cc1OC)C(=O)/C(=C/c1ccc(N3CC[N+](C)(Cc4cccc(Br)c4)CC3)cc1)C2
Result: 6.19

Query: Tell me pIC50 reported for CCC[N+]1(C)CCN(c2ccc(/C=C3\Cc4cc(OC)c(OC)cc4C3=O)cc2)CC1
Result: 4.70

Query: Tell me pIC50 reported for COc1cc2c(cc1OC)C(=O)/C(=C/c1ccc(N3CC[N+](C)(CCO)CC3)cc1)C2
Result: 5.19
